Recorded inhibition at 1 µM for the following compounds
target: UniProtKB P0A0K8; assay: biochemical; conditions: compound at 1 μM; one value per test if tested more than once; read-out: % Inhibition of S. aureus GyrB ATPase
Provide the reading as a plain figure in %.

Some compounds with recorded inhibition at 1 µM:
>>> value_measured("COCCn1cc(C(=O)O)c(=O)c2cc(-c3cnc(NC(=O)NC(C)C)cc3-c3nc(C(F)(F)F)cs3)ccc21")
93
>>> value_measured("CCCNC(=O)Nc1cc(-c2nc(C(F)(F)F)cs2)c(-c2ccc3c(c2)c(=O)c(C(=O)O)cn3CCC2CCN(C)CC2)cn1")
108
>>> value_measured("CCNC(=O)Nc1cc(-c2nc(C(F)(F)F)cs2)c(-c2ccc3c(c2)c(=O)c(C(=O)O)cn3C(COC)COC)cn1")
98
>>> value_measured("CCCNC(=O)Nc1cc(-c2nc(C(F)(F)F)cs2)c(-c2ccc3c(c2)c(=O)c(C(=O)N2CCNCC2)cn3CCN(C)C)cn1")
101
>>> value_measured("CCNC(=O)Nc1cc(-c2nc(C(F)(F)F)cs2)c(-c2ccc3c(=O)c(C(=O)NCCN4CCOCC4)cn(Cc4ccccc4)c3c2)cn1")
87
>>> value_measured("CCNC(=O)Nc1cc(-c2nc(C(F)(F)F)cs2)c(-c2ccc3c(c2)c(=O)c(C(=O)O)cn3CC2CCOCC2)cn1")
97

The reported inhibition at 1 µM of the compound CCNC(=O)Nc1cc(-c2nc(C(F)(F)F)cs2)c(-c2ccc3c(=O)c(C(=O)NCCCO)cn(CCO)c3c2)cn1 was 99

###

target: S. aureus GyrB ATPase (Staphylococcus aureus, UniProt P0A0K8); assay: biochemical; conditions: compound at 1 μM; one value per test if tested more than once; read-out: % Inhibition of S. aureus GyrB ATPase
Sequence (P0A0K8 whole entry): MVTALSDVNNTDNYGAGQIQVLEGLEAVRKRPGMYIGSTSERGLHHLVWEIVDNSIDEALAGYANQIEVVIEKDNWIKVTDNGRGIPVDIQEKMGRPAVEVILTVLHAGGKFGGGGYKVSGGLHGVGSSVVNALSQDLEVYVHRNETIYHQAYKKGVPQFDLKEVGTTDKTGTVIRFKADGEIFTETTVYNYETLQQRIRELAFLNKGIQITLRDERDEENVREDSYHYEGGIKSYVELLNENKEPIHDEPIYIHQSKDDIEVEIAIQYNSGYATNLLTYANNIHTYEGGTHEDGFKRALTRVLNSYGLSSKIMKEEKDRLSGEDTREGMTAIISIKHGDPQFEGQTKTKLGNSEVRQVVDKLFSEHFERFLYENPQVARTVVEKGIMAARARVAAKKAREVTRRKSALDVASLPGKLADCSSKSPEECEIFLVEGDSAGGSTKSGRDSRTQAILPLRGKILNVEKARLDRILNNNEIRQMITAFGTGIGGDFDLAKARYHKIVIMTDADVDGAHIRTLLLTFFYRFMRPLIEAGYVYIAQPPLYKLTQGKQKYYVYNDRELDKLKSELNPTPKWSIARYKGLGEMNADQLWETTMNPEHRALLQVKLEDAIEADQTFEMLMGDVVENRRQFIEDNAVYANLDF
Sequence (P0AES4 whole entry, further chain): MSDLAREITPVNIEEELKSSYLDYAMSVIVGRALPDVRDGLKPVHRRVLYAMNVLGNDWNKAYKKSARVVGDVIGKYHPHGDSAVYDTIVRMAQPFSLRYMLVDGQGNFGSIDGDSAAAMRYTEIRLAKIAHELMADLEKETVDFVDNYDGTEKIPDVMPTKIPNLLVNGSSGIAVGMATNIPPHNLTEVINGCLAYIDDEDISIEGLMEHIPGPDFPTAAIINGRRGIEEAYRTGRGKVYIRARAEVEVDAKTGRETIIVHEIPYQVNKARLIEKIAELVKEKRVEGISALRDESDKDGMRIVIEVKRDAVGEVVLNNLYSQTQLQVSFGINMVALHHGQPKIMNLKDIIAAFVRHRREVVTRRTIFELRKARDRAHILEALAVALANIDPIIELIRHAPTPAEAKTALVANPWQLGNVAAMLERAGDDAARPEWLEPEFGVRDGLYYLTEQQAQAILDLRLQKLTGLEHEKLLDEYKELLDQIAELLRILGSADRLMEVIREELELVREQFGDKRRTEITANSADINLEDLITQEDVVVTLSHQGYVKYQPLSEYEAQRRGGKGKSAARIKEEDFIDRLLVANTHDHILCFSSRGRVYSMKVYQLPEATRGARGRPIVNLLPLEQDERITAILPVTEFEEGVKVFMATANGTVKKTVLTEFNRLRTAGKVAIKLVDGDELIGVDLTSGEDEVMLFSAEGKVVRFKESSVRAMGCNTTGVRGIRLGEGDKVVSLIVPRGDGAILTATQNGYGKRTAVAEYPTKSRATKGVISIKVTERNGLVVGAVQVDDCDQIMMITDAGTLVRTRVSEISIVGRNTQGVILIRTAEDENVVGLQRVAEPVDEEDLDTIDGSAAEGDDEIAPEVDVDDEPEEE
// values below are reported inhibition at 1 µM
Numeric answer only, unit % assumed.

Below, 9 molecules whose answers are already recorded.
>>> value_measured("CCNC(=O)Nc1cc(-c2nc(C(F)(F)F)cs2)c(-c2ccc3c(c2)c(=O)c(C(=O)N2CCN(S(C)(=O)=O)CC2)cn3C(COC)COC)cn1 [Example 145]")
92
>>> value_measured("CCNC(=O)Nc1cc(-c2nc(C(F)(F)F)cs2)c(-c2ccc3c(=O)c(C(=O)NCCCO)cn(CCOC)c3c2)cn1 [Example 371]")
98
>>> value_measured("CCNC(=O)Nc1cc(-c2nc(C(F)(F)F)cs2)c(-c2ccc3c(c2)c(=O)c(C(=O)O)cn3[C@H]2CCCN(CCO)C2)cn1 [Example 291]")
107
>>> value_measured("CCNC(=O)Nc1cc(-c2nc(C(F)(F)F)cs2)c(-c2cc3c4c(c2)c(=O)c(C(=O)O)cn4CCO3)cn1 [Example 11]")
102
>>> value_measured("CCNC(=O)Nc1cc(-c2nc(C(F)(F)F)cs2)c(-c2ccc3c(c2)c(=O)c(C(=O)NC2CCOCC2)cn3C(COC)COC)cn1 [Example 128]")
92
>>> value_measured("CCCNC(=O)Nc1cc(-c2nc(C(F)(F)F)cs2)c(-c2ccc3c(c2)c(=O)c(C(=O)NCCO)cn3CCN(C)C)cn1 [Example 203]")
87
>>> value_measured("CCNC(=O)Nc1cc(-c2nc(C(F)(F)F)cs2)c(-c2ccc3c(c2)c(=O)c(C(=O)O)cn3CCC2CCN(C)CC2)cn1 [Example 89]")
91
>>> value_measured("CCNC(=O)Nc1cc(-c2nc(C(F)(F)F)cs2)c(-c2ccc3c(c2)c(=O)c(C(=O)O)cn3C[C@@H]2CCCN(CC)C2)cn1 [Example 251]")
113
>>> value_measured("CCNC(=O)Nc1cc(-c2nc(CC)cs2)c(-c2ccc3c(=O)c(C(=O)NC)cn(CC)c3c2)cn1 [Example 36]")
64

Attention now turns to another entry.
Assay S. aureus GyrB ATPase (Staphylococcus aureus, UniProt P0A0K8), sample CCNC(=O)Nc1cc(-c2nc(C(F)(F)F)cs2)c(-c2ccc3c(=O)c(C(=O)NCCN4CCOCC4)cn(CC)c3c2)cn1 [Example 333] , inhibition at 1 µM read: 106

###

target: UniProtKB P0A0K8; experiment: biochemical; details: compound at 1 μM; one value per test if tested more than once; read-out: % Inhibition of S. aureus GyrB ATPase
MEASURED_ATTRIBUTE: inhibition at 1 µM (%)
Please state the figure in %; there is no need to write the unit.

Sample answers from the record:
>>> value_measured("CCNC(=O)Nc1cc(-c2nc(C(F)(F)F)cs2)c(-c2ccc3c(=O)c(C(=O)NCCN(C)C)cn(CC4CC4)c3c2)cn1")
106
>>> value_measured("CCNC(=O)Nc1cc(-c2nc(C(F)(F)F)cs2)c(-c2ccc3c(=O)c(C(=O)OCC)cn(CC)c3c2)cn1")
113
>>> value_measured("CCNC(=O)Nc1cc(-c2nc(C(F)(F)F)cs2)c(-c2ccc3c(c2)c(=O)c(C(=O)O)cn3[C@H](CO)CC(C)C)cn1")
96
>>> value_measured("CCNC(=O)Nc1cc(-c2nc(C(F)(F)F)cs2)c(-c2ccc3c(c2)c(=O)c(C(=O)O)cn3[C@@H](CO)C(C)(C)C)cn1")
110
>>> value_measured("CCNC(=O)Nc1cc(-c2nc(C(F)(F)F)cs2)c(-c2ccc3c(=O)c(C(=O)NC)cn(CC)c3c2)cn1")
97

The value of inhibition at 1 µM measured for the compound CCNC(=O)Nc1cc(-c2nc(-c3ccccc3)cs2)c(-c2cc3c4c(c2)c(=O)c(C(=O)NC)cn4CCO3)cn1 turned out to be 105

Entry under test: CCNC(=O)Nc1cc(-c2nc(C(F)(F)F)cs2)c(-c2ccc3c(=O)c(C(=O)NCCCO)cn(CC)c3c2)cn1 . Its inhibition at 1 µM was 109

Lab note: measured inhibition at 1 µM of CCNC(=O)Nc1cc(-c2nc(C(F)(F)F)cs2)c(-c2ccc3c(=O)c(C(=O)NCCN4CCN(C)CC4)cn(CC)c3c2)cn1 was 95

Record CCNC(=O)Nc1cc(-c2nc(C(F)(F)F)cs2)c(-c2ccc3c(c2)c(=O)c(C(=O)O)cn3C2CCCN(C)C2)cn1 (stereo not drawn) . Reported inhibition at 1 µM: 100

Per the records, this compound ( CCNC(=O)Nc1cc(-c2nc(C(F)(F)F)cs2)c(-c2ccc3c(c2)c(=O)c(C(=O)N2CCN(CCO)CC2)cn3C(COC)COC)cn1 ) has inhibition at 1 µM equal to 97

###

molecular target: S. aureus GyrB ATPase (Staphylococcus aureus, UniProt P0A0K8); assay: biochemical; conditions: compound at 1 μM; one value per test if tested more than once; read-out: % Inhibition of S. aureus GyrB ATPase
MEASURED_ATTRIBUTE: inhibition at 1 µM (%)
Give a bare numeral; the unit % is implied.

>>> value_measured("CCNC(=O)Nc1cc(-c2nc(C(F)(F)F)cs2)c(-c2ccc3c(c2)c(=O)c(C(=O)O)cn3C2CCCCC2)cn1")
96

Tested system S. aureus GyrB ATPase (Staphylococcus aureus, UniProt P0A0K8); inhibition at 1 µM recorded for CCNC(=O)Nc1cc(-c2nc(C(F)(F)F)cs2)c(-c2ccc3c(c2)c(=O)c(C(=O)NC)cn3[C@H](C(=O)O)C(C)C)cn1 was 101

Noted inhibition at 1 µM for CCNC(=O)Nc1cc(-c2nc(C(F)(F)F)cs2)c(-c2ccc3c(c2)c(=O)c(C(=O)O)cn3C2CN(C)C2)cn1 , tested on S. aureus GyrB ATPase (Staphylococcus aureus, UniProt P0A0K8): 99

I looked up CCNC(=O)Nc1cc(-c2nc(C(F)(F)F)cs2)c(-c2ccc3c(=O)c(C(=O)NC)cn(CCOC)c3c2)cn1 and its inhibition at 1 µM for S. aureus GyrB ATPase (Staphylococcus aureus, UniProt P0A0K8) was 97

Reading of inhibition at 1 µM for CCNC(=O)Nc1cc(-c2nc(C(F)(F)F)cs2)c(-c2ccc3c(c2)c(=O)c(C(=O)N2CCN(C(C)=O)CC2)cn3CCN(C)C)cn1 with S. aureus GyrB ATPase (Staphylococcus aureus, UniProt P0A0K8): 106

// assay S. aureus GyrB ATPase (Staphylococcus aureus, UniProt P0A0K8), entry CCNC(=O)Nc1cc(-c2nc(C(F)(F)F)cs2)c(-c2ccc3c(c2)c(=O)c(C(=O)NC(COC)COC)cn3C2CC2)cn1 , inhibition at 1 µM value = 100

// inhibition at 1 µM (S. aureus GyrB ATPase (Staphylococcus aureus, UniProt P0A0K8)) for CCNC(=O)Nc1cc(-c2nc(C(F)(F)F)cs2)c(-c2ccc3c(c2)c(=O)c(C(=O)NCCCO)cn3C(COC)COC)cn1 = 93

With S. aureus GyrB ATPase (Staphylococcus aureus, UniProt P0A0K8) as the test system, CCNC(=O)Nc1cc(-c2nc(C(F)(F)F)cs2)c(-c2ccc3c(c2)c(=O)c(C(=O)N2CCNCC2)cn3CCN(C)C)cn1 showed inhibition at 1 µM of 106

Reference for the values: patent US8283361B2
